Field: melting point. Provide a value for each of the molecules that follow.

Challenge: Item under review: CCN(C(=O)C#Cc1ccccc1)c1ccccc1C1CCCCN1C (stereo unspecified) . Reported melting point?
Response given: 104 to 106 °C

Challenge: Item under review: CCCCCCCCCCCC#Cc1ccc(C=CC(=O)O)cc1 . Reported melting point?
Response given: 156 to 157 °C

Challenge: Item under review: CC(=O)c1c(C)[nH]c(C(C)C)c1C . Reported melting point?
Response given: 166 to 167 °C

Challenge: Item under review: O=[N+]([O-])c1cc(Br)ccc1Cl . Reported melting point?
Response given: 65 to 67 °C

Challenge: Item under review: CC(C)CC(=O)Nc1cccc(-c2ccnc3c(-c4ccc(Cl)cc4)cnn23)c1 . Reported melting point?
Response given: 215 to 217 °C

We next turn to a different molecule, shown below.
Challenge: Item under review: CN(C(=O)OCc1ccccc1)c1ccc(OCC(=O)O)cc1 . Reported melting point?
Response given: 96 to 97 °C

---

Field: melting point. Provide a value for each of the compounds that follow.

Field: example entries. Status: answers known.
Challenge: Item under review: CCn1c(COCc2ccccc2)nc(C(C)C)c1Sc1cccc([N+](=O)[O-])c1 . Reported melting point?
Response given: 121 to 123 °C

Challenge: Item under review: O=C(Nc1ccc(-n2nc(C(F)(F)F)cc2C2CC2)cc1)c1ccncc1F . Reported melting point?
Response given: 143 to 146 °C

Challenge: Item under review: O=C(O)C1Cc2cc3c(-c4ccccc4)noc3c(Cl)c2O1 (stereo not given) . Reported melting point?
Response given: 214 to 215 °C

Can you give me melting point for all of these, one by one?
1. CC(C)(C)OC(=O)NC(COCCCN)(COCCCN)COCCCN
2. COc1ccc(-c2cc3n(n2)C(=O)c2ccccc2-3)cc1
3. CCCCc1ncc(C(C)CC(=O)O)n1Cc1ccccc1Cl (stereo not given)

Response given:
1. 96 to 98 °C
2. 180 to 181 °C
3. 131 to 133 °C

Can you give me melting point for all of these, one by one?
1. CN(C)C=C1C(=O)N(c2cccc(O)c2)c2ccccc21
2. COc1ccc2sc(C(=O)OCC(C)(C)C(O)C(C)(C)C)cc2c1 (stereo not given)
3. OC(CCl)(Cc1ccccc1Cl)c1ccc(Cl)cc1 (stereo not given)

Response given:
["200 to 203 °C", "121 to 122 °C", "64 to 69 °C"]

Can you give me melting point for all of these, one by one?
1. CC(=O)Nc1c(C(=O)c2cccc(C#N)c2)[nH]c2cc(Cl)ccc12
2. O=[N+]([O-])c1cc2nc(O)c(O)nc2c2[nH]nnc12

Response given:
["185 to 187 °C", "> 300 °C"]

---

Field: melting point. Provide a value for each of the molecules that follow.
Answers are plain numbers, in °C.

Challenge: Item under review: O=[N+]([O-])c1c(Br)nn(Cc2ccccc2)c1NCc1ccccc1 . Reported melting point?
Response given: 103

We next turn to a different molecule, shown below.
Challenge: Item under review: CC12CC3CC(C)(C1)CC(NC(=O)CCl)(C3)C2 . Reported melting point?
Response given: 107

---

Field: melting point. Provide a value for each of the compounds that follow.

Can you give me melting point for all of these, one by one?
1. Cc1cc(Nc2ncnc3ccc(-n4ccnc4)cc23)ccc1OCc1ccccn1
2. N#CC(c1ccc([N+](=O)[O-])cc1)c1ccccn1 (racemic)
3. O=C(CC1CCN(CC2CC2)CC1)c1ccc(O)cc1

Response given:
1: 208 to 211 °C; 2: 97 to 99 °C; 3: 209 to 211 °C
